Consider the following IC50 values measured on Receptor-interacting serine/threonine-protein kinase 1 (Homo sapiens, UniProt Q13546).
Sequence (Q13546 whole entry): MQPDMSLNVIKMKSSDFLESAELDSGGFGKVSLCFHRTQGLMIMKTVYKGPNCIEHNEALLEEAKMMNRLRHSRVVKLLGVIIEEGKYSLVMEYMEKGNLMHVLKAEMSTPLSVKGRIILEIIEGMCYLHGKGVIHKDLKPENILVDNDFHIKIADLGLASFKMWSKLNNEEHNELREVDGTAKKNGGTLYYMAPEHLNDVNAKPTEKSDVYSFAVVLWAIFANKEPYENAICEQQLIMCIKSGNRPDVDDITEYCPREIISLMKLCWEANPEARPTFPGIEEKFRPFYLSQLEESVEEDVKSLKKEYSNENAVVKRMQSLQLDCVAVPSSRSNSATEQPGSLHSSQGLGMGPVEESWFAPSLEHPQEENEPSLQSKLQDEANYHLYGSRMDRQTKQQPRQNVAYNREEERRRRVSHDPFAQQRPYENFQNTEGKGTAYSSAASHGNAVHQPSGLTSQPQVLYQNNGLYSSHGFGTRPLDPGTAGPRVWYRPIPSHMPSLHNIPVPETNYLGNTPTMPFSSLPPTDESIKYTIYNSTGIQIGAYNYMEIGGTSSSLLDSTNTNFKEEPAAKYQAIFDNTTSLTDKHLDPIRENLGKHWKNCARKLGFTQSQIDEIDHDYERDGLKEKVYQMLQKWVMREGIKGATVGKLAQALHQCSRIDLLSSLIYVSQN
Lab book: enter the figure in nM, no units written.

Consider the reported IC50 for these compounds:
1. C[C@H]1Oc2ccc(C#CCN3CCN(CC#Cc4ccc5c(c4)N(C)C(=O)[C@@H](NC(=O)c4ncn(Cc6ccccc6)n4)[C@@H](C)O5)CC3)cc2N(C)C(=O)[C@H]1NC(=O)c1n[nH]c(Cc2ccccc2)n1 ... 6.68
2. COCCOCCOCCOCCOCC#Cc1ccc2c(c1)N(C)C(=O)[C@@H](NC(=O)c1ncn(Cc3ccccc3)n1)CO2 ... 1.88

input: Tell me measured IC50 for CN1C(=O)[C@@H](NC(=O)c2ncn(Cc3ccccc3)n2)COc2ccc(C#CCOCCOCCOCCOCCOCC#Cc3ccc4c(c3)N(C)C(=O)[C@@H](NC(=O)c3ncn(Cc5ccccc5)n3)CO4)cc21 please.
output: 7.49

input: Tell me measured IC50 for C[C@H]1Oc2ccc(C#CCOCCOCCOCCOCCOCC#CC#CCOCCOCCOCCOCCOCC#Cc3ccc4c(c3)N(C)C(=O)[C@@H](NC(=O)c3n[nH]c(Cc5ccccc5)n3)[C@@H](C)O4)cc2N(C)C(=O)[C@H]1NC(=O)c1n[nH]c(Cc2ccccc2)n1 please.
output: 6.32
